Tested on: coiled-coil pairs within the eight-peptide interactome
Test: Thermal denaturation followed by CD at 222 nm (Tm of coiled-coil pairs)
Assay type: binding
Settings: Table 1 and text; CD 222 nm, 150 μM total peptide (75 μM per peptide for heterodimers), 10 mM potassium phosphate, 100 mM potassium fluoride, pH 7, -8 to 95 °C in 1 °C steps, two-state fit
Below, each of the sequences is paired with its reported Tm value.
# value in °C; strip the unit string

ASENAALEAKNAALKYKIAALKAEIAALEGAP [Peptide 1, N- and C-capped coiled-coil peptide; 1-1 is the homomeric sample] :: 32
ASKNAALKAENAALEYEIAALEAKIAALKGAP [Peptide 2, N- and C-capped coiled-coil peptide; 2-2 is the homomeric sample] :: 20

IN: What reported Tm corresponds to ASENAALEAKIAALKYEIAALEAKNAALKGAP [Peptide 6, N- and C-capped coiled-coil peptide; 6-6 is the homomeric sample] on coiled-coil pairs within the eight-peptide interactome?
OUT: 53

IN: Check ASKNAALKAEIAALEYKIAALKAENAALEGAP [Peptide 5, N- and C-capped coiled-coil peptide; 5-5 is the homomeric sample] too.
OUT: 53

The reported numbers originate from paper PMC4751974.
